tested on: Oryza sativa; experiment: Phytotoxicity against directly seeded Oryza sativa (rice) seedlings assessed as phytotoxic activity ratings (0- no effect to 5-complete killing rating scale) at 100 g/a measured after 3 weeks post compound treatment under green house conditions; type: organism-based; details: in vivo, 504 h
Reported Activity is given for each of the following compounds.
Please respond with the number in % and leave the unit unwritten.

Smiles Representation	Target Entity	Units	Activity
C[C@@H](NC(=O)Nc1cccc(C(F)(F)F)c1)c1ccccc1	Oryza sativa	%	10
CC(=O)c1ccccc1NC(=O)N[C@@H](C)c1ccccc1	Oryza sativa	%	0
CC(C)c1ccc(NC(=O)N[C@H](C)c2ccccc2)cc1	Oryza sativa	%	0

I am curious: what Activity value has been reported for "C[C@@H](NC(=O)Nc1cc(C(F)(F)F)cc(C(F)(F)F)c1)c1ccccc1" ?
0

Repeat with "C[C@H](NC(=O)Nc1cccc(C(F)(F)F)c1)c1ccccc1"
0

Repeat with "CCc1ccccc1NC(=O)N[C@@H](C)c1ccccc1"
0

Repeat with "C[C@H](NC(=O)Nc1cccc(F)c1F)c1ccccc1"
10

Repeat with "C[C@H](NC(=O)Nc1ccccc1)c1ccccc1"
10

* * *

tested on: Oryza sativa; test: Phytotoxicity against transplanted Oryza sativa (rice) seedlings assessed as phytotoxic activity ratings (0- no effect to 5-complete killing rating scale) at 100 g/a measured after 3 weeks post compound treatment under green house conditions; assay type: organism-based; conditions: in vivo, 504 h
Reported Activity is given for each of the following molecules.
Please respond with the number in % and leave the unit unwritten.

Smiles Representation	Target Entity	Units	Observed
CCc1ccc(NC(=O)N[C@@H](C)c2ccccc2)cc1	Oryza sativa	%	0

I am curious: what Activity value has been reported for "CC(=O)c1ccccc1NC(=O)N[C@@H](C)c1ccccc1" ?
0

Repeat with "Cc1cc(F)ccc1NC(=O)N[C@H](C)c1ccccc1"
0

Repeat with "C[C@H](NC(=O)Nc1ccc(C(C)(C)C)cc1)c1ccccc1"
0

Repeat with "CCCCCCCc1ccc(NC(=O)N[C@@H](C)c2ccccc2)cc1"
0

Repeat with "C[C@@H](NC(=O)Nc1cccc(C(F)(F)F)c1F)c1ccccc1"
0

Repeat with "Cc1cc(F)ccc1NC(=O)N[C@@H](C)c1ccccc1"
0

Repeat with "C[C@@H](NC(=O)Nc1c(F)cccc1F)c1ccccc1"
0

Repeat with "C[C@H](NC(=O)Nc1ccc(F)c(F)c1)c1ccccc1"
0

Repeat with "C[C@H](NC(=O)Nc1ccccc1Cl)c1ccccc1"
0

Repeat with "C[C@H](NC(=O)Nc1cccc(F)c1F)c1ccccc1"
0

Repeat with "C[C@@H](NC(=O)Nc1ccc(Br)cc1)c1ccccc1"
0

* * *

tested on: Oryza sativa; test: Phytotoxicity against transplanted Oryza sativa (rice) seedlings assessed as phytotoxic activity ratings (0- no effect to 5-complete killing rating scale) at 100 g/a measured after 3 weeks post compound treatment under green house conditions; format: organism-based; conditions: in vivo, 504 h
Reported Activity is given for each of the following compounds.
Please respond with the number in % and leave the unit unwritten.

# example entries with known answers
Smiles Representation	Target Entity	Activity, %
C[C@H](NC(=O)Nc1ccccc1)c1ccccc1	Oryza sativa	0
CC(C)c1ccccc1NC(=O)N[C@H](C)c1ccccc1	Oryza sativa	0
C[C@@H](NC(=O)Nc1ccc(F)c(F)c1)c1ccccc1	Oryza sativa	0
CCCCCCc1ccc(NC(=O)N[C@@H](C)c2ccccc2)cc1	Oryza sativa	0
C[C@H](NC(=O)Nc1ccc(Br)cc1)c1ccccc1	Oryza sativa	0

Shifting focus to the compound that follows.
I am curious: what Activity value has been reported for "CCc1ccccc1NC(=O)N[C@@H](C)c1ccccc1" ?
0
